These data points were gathered from a melting point compilation (Tetko et al.; mined from patent text by program, amines drawn as free bases though some values may be those of a salt).

MEASURED PROPERTY: melting point

CC(C)(C)OC(=O)N1CCn2c(c(I)c(C#N)c2-c2ccccc2)C1 ... 174 to 178 °C
COC(=O)C=C1CN=C(c2ccccc2F)c2cc(Cl)ccc2N1 ... 158 to 160 °C
CCC(Oc1ccccc1C#N)C(=O)OC1CC(O)C=C2C=CC(C)C(CCC3CC(O)CC(=O)O3)C21 (mixture of isomers) ... 95 to 97 °C
CC(C)(C)c1ocnc1/C=C1\NC(=O)[C@H](Cc2ccccc2)NC1=O ... 52 to 56 °C

Give measured melting point for every item shown.
1. CC(=O)c1c(-c2ccncc2)[nH]c(-c2ccncc2)c1C
2. CCOC(=O)C1Oc2ccccc2Cc2ccccc2O1
3. CC(=O)n1cc(-c2cccc(Cl)c2Cl)c(C(F)(F)F)c1
4. CCCn1c(=O)[nH]c(=O)c2nc(-c3ccc(/C=C/C(=O)O)cc3)[nH]c21

[reply]
1: 237 to 240 °C; 2: 86.5 to 88.5 °C; 3: 65 to 66 °C; 4: > 300 °C

Dear colleague, could you please provide melting point for the compounds listed below?
1. COc1ccc(N(C(=O)CN2C(=O)C(Cc3n[nH]c4ccccc34)C(=O)N(c3cccnc3)c3ccccc32)C(C)C)cc1 (single isomer, unassigned; (+))
2. CC1Cc2cc3c(cc2C(c2ccc([N+](=O)[O-])cc2)=NN1C(N)=NO)OCO3 (centres undefined)
3. NC(=O)c1nnsc1Nc1ccccc1
4. CC(C)(C)c1ccc2c(c1)C([Si](C)(C)C)c1cc(C(C)(C)C)ccc1-2
5. O=C(OCCBr)N1CCCSC1=C[N+](=O)[O-]

[reply]
1: 214 to 215 °C; 2: 138 to 145 °C; 3: 195 to 197 °C; 4: 144 to 146 °C; 5: 79 to 81 °C
